target: recombinant IL4I1 (Homo sapiens (Human), UniProt Q96RQ9); assay: IL4I1 Enzymatic Assay (Amplex Red/HRP coupled fluorescence detection of H2O2); format: biochemical; details: 240 min; recombinant IL4I1, four-hour pre-incubation with compound
Sequence (Q96RQ9 22-567): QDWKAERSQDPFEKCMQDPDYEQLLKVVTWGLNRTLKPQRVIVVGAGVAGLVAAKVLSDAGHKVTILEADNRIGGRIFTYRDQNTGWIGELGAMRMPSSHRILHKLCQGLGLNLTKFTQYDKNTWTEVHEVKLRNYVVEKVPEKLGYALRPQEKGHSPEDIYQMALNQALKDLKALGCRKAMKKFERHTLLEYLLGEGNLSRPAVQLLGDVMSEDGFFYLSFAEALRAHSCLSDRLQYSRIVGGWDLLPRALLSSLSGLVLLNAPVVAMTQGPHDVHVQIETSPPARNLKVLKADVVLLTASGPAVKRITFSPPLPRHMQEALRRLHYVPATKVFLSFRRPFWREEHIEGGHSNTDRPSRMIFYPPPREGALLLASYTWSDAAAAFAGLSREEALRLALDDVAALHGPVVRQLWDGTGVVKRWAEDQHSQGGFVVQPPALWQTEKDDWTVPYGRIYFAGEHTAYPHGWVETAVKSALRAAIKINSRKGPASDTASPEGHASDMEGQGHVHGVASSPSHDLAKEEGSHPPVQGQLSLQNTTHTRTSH
MEASURE NAME: EC50 (nM)
Answer format: numeric, nM implied, no suffix.

Worked cases, EC50 given:
> print(dat)
                                   molecule  endpoint.unit  meas.value
1  O=c1c(=O)n(C2CCC2)ccn1Cc1cc(-c2ccccc2)n[nH]1             nM           6
2  O=C1C(=O)N(C2CCCC2)CCN1Cc1ccc(-c2cncs2)cc1F             nM           7
3  O=c1c(=O)n([C@H]2C[C@H]3C[C@H]3C2)ccn1Cc1nnc(-c2cccc(F)c2)s1             nM           3
4  CC1(N2CCN(Cc3nnc(-c4ccccc4)s3)C(=O)C2=O)CC1             nM          28
5  N#CC1(n2ccn(Cc3ccc(-n4nccn4)cn3)c(=O)c2=O)CC1             nM          66
6  O=C1C(=O)N(CC2CC2)CCN1Cc1ncc(-c2ccccc2)cn1             nM          38

Field request: EC50 | item: "O=C1C(=O)N(C2CCCC2)CCN1Cc1nnc(-n2nccn2)s1"
157

Field request: EC50 | item: "O=C1C(=O)N(C2CCCC2)CCN1Cc1ccc(-c2ccccc2F)nn1"
15
